All figures here come from paper PMC9266530.

- Study Target: CYP3A4 (Homo sapiens, UniProt P08684)
- Construct: The full-length protein was used for assays and the truncated form was used for crystallization; made in house
- Sequence (P08684 whole entry, the tested form may be a part): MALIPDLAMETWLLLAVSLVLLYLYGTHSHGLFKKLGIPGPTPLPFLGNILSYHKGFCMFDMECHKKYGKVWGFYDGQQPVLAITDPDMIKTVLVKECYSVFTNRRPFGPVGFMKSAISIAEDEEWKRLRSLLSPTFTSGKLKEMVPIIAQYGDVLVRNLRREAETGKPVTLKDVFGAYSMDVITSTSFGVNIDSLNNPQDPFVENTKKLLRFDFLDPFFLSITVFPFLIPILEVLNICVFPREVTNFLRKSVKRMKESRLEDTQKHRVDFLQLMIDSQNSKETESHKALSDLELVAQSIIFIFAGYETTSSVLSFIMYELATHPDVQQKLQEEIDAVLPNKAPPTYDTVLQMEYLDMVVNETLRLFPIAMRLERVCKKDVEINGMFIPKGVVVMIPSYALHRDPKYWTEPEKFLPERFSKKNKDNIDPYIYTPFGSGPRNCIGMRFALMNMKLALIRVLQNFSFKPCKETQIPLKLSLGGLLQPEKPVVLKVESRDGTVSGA
- Experiment: Spectral binding titrations (equilibrium ligand binding, type II spectral change)
- Protocol Conditions: 2 μM protein, 23 °C, 0.1 M phosphate pH 7.4, quadratic fits to titration plots; read-out: Ks (spectral dissociation constant)
Response field label: string, one of true (Kd strictly below 50 nM) or false.

>  <Compound>
CC(C)(C)OC(=O)N[C@H](CS[C@H](Cc1ccccc1)C(=O)NCC(=O)Nc1cccnc1)Cc1ccccc1 [Compound 4]

>  <Answer Label>
false

$$$$
>  <Compound>
O=C(CCc1cccnc1)N[C@H](CS[C@H](Cc1ccccc1)C(=O)NCCc1cccnc1)Cc1ccccc1 [Compound 8b]

>  <Answer Label>
false

$$$$
>  <Compound>
CC(C)(C)OC(=O)N[C@H](CS[C@H](Cc1ccccc1)C(=O)NCCc1ccncc1)Cc1ccccc1 [Compound 5b]

>  <Answer Label>
true

$$$$
>  <Compound>
CC(C)(C)OC(=O)N[C@H](CS[C@H](Cc1ccccc1)C(=O)NCc1ccncc1)Cc1ccccc1 [Compound 5a]

>  <Answer Label>
true

$$$$
>  <Compound>
O=C(Cc1cccnc1)N[C@H](CS[C@H](Cc1ccccc1)C(=O)NCc1cccnc1)Cc1ccccc1 [Compound 8a]

>  <Answer Label>
false

$$$$
>  <Compound>
O=C(CNC(=O)c1cccnc1)N[C@H](CS[C@H](Cc1ccccc1)C(=O)NCCCc1cccnc1)Cc1ccccc1 [Compound 10b]

>  <Answer Label>
true

$$$$
>  <Compound>
O=C(N[C@H](CS[C@H](Cc1ccccc1)C(=O)NCCCc1cccnc1)Cc1ccccc1)c1cccnc1 [Compound 10a]

>  <Answer Label>
true

$$$$

----------
- Study Target: CYP3A4 (Homo sapiens)
- Construct: The full-length protein was used for assays and the truncated form was used for crystallization; made in house
- Experiment: Stopped-flow kinetics of ligand binding
- Protocol Conditions: rate constant for the fast kinetic phase of the ligand-binding reaction

>  <Compound>
O=C(CNC(=O)c1cccnc1)N[C@H](CS[C@H](Cc1ccccc1)C(=O)NCCCc1cccnc1)Cc1ccccc1 [Compound 10b]

>  <Study Target>
CYP3A4 (Homo sapiens)

>  <Unit>
s⁻¹

>  <kfast>
13.7

$$$$
>  <Compound>
CC(C)(C)OC(=O)N[C@H](CS[C@@H](Cc1ccccc1)C(=O)NCCc1cccnc1)Cc1ccccc1 [Compound 4h, reference compound]

>  <Study Target>
CYP3A4 (Homo sapiens)

>  <Unit>
s⁻¹

>  <kfast>
13.8

$$$$
>  <Compound>
CC(C)(C)OC(=O)N[C@H](CS[C@H](Cc1ccccc1)C(=O)NCc1ccncc1)Cc1ccccc1

>  <Study Target>
CYP3A4 (Homo sapiens)

>  <Unit>
s⁻¹

>  <kfast>
22.5

$$$$
>  <Compound>
O=C(N[C@H](CS[C@H](Cc1ccccc1)C(=O)NCCCc1cccnc1)Cc1ccccc1)c1cccnc1 [Compound 10a]

>  <Study Target>
CYP3A4 (Homo sapiens)

>  <Unit>
s⁻¹

>  <kfast>
15.4

$$$$
>  <Compound>
CC(C)(C)OC(=O)N[C@H](CS[C@H](Cc1ccccc1)C(=O)NCc1cccnc1)Cc1ccccc1 [Compound 4b, reference compound]

>  <Study Target>
CYP3A4 (Homo sapiens)

>  <Unit>
s⁻¹

>  <kfast>
13.2

$$$$
>  <Compound>
CC(C)(C)OC(=O)N[C@H](CS[C@H](Cc1ccccc1)C(=O)NCCc1cccnc1)Cc1ccccc1 [Compound 4f, reference compound]

>  <Study Target>
CYP3A4 (Homo sapiens)

>  <Unit>
s⁻¹

>  <kfast>
11.4

$$$$
>  <Compound>
CC(C)(C)OC(=O)N[C@H](CS[C@H](Cc1ccccc1)C(=O)NCCc1ccncc1)Cc1ccccc1

>  <Study Target>
CYP3A4 (Homo sapiens)

>  <Unit>
s⁻¹

>  <kfast>
18.2

$$$$
>  <Compound>
CC(C)(C)OC(=O)N[C@H](CS[C@H](Cc1ccccc1)C(=O)NCCCc1cccnc1)Cc1ccccc1 [Compound 3a, reference compound]

>  <Study Target>
CYP3A4 (Homo sapiens)

>  <Unit>
s⁻¹

>  <kfast>
12.5

$$$$

----------
- Study Target: CYP3A4 (Homo sapiens)
- Construct: The full-length protein was used for assays and the truncated form was used for crystallization; made in house
- Experiment: Spectral binding titrations (equilibrium ligand binding, type II spectral change)
- Protocol Conditions: human, purified CYP3A4 protein solution, pH 7.4, 2 μM protein, 23 °C, 0.1 M phosphate pH 7.4, quadratic fits to titration plots; read-out: Ks (spectral dissociation constant)
pKd: −log10 of the molar value.

>  <Compound>
O=C(CNC(=O)c1cccnc1)N[C@H](CS[C@H](Cc1ccccc1)C(=O)NCCCc1cccnc1)Cc1ccccc1 [Compound 10b]

>  <pKd>
8.05 to 8.10

$$$$

----------
Entries and their kH2O2 values follow.
- Study Target: CYP3A4 (Homo sapiens, UniProt P08684)
- Construct: The full-length protein was used for assays and the truncated form was used for crystallization; made in house
- Experiment: H2O2-dependent heme depletion (heme bleaching) assay
- Protocol Conditions: rate constant for the H2O2-dependent heme-bleaching reaction; 10 mM H2O2, 16 μM inhibitor

>  <Molecule>
O=C(CNC(=O)c1cccnc1)N[C@H](CS[C@H](Cc1ccccc1)C(=O)NCCCc1cccnc1)Cc1ccccc1 [Compound 10b]

>  <kH2O2>
0.24 ± 0.03 10^3 × min^−1

$$$$
>  <Molecule>
O=C(CCc1cccnc1)N[C@H](CS[C@@H](Cc1ccccc1)C(=O)NCCc1cccnc1)Cc1ccccc1

>  <kH2O2>
0.32 ± 0.03 10^3 × min^−1

$$$$
>  <Molecule>
O=C(CCc1cccnc1)N[C@H](CS[C@H](Cc1ccccc1)C(=O)NCCc1cccnc1)Cc1ccccc1

>  <kH2O2>
0.44 ± 0.06 10^3 × min^−1

$$$$
>  <Molecule>
CC(C)(C)OC(=O)N[C@H](CS[C@H](Cc1ccccc1)C(=O)NCCc1cccnc1)Cc1ccccc1 [Compound 4f, reference compound]

>  <kH2O2>
0.60 ± 0.08 10^3 × min^−1

$$$$
>  <Molecule>
CC(C)(C)OC(=O)N[C@H](CS[C@@H](Cc1ccccc1)C(=O)NCCc1cccnc1)Cc1ccccc1 [Compound 4h, reference compound]

>  <kH2O2>
0.32 ± 0.03 10^3 × min^−1

$$$$
>  <Molecule>
CC(C)(C)OC(=O)N[C@H](CS[C@H](Cc1ccccc1)C(=O)NCCCc1cccnc1)Cc1ccccc1 [Compound 3a, reference compound]

>  <kH2O2>
0.21 ± 0.03 10^3 × min^−1

$$$$
>  <Molecule>
CC(C)(C)OC(=O)N[C@H](CS[C@H](Cc1ccccc1)C(=O)NCCc1ccncc1)Cc1ccccc1

>  <kH2O2>
0.31 ± 0.03 10^3 × min^−1

$$$$
>  <Molecule>
O=C(N[C@H](CS[C@H](Cc1ccccc1)C(=O)NCCCc1cccnc1)Cc1ccccc1)c1cccnc1 [Compound 10a]

>  <kH2O2>
0.17 ± 0.02 10^3 × min^−1

$$$$
>  <Molecule>
CC(C)(C)OC(=O)N[C@H](CS[C@H](Cc1ccccc1)C(=O)NCC(=O)Nc1cccnc1)Cc1ccccc1

>  <kH2O2>
0.70 ± 0.08 10^3 × min^−1

$$$$
>  <Molecule>
O=C(Cc1cccnc1)N[C@H](CS[C@H](Cc1ccccc1)C(=O)NCc1cccnc1)Cc1ccccc1

>  <kH2O2>
0.66 ± 0.10 10^3 × min^−1

$$$$
>  <Molecule>
CC(C)(C)OC(=O)N[C@H](CS[C@H](Cc1ccccc1)C(=O)NCc1ccncc1)Cc1ccccc1

>  <kH2O2>
0.31 ± 0.04 10^3 × min^−1

$$$$
>  <Molecule>
CC(C)(C)OC(=O)N[C@H](CS[C@H](Cc1ccccc1)C(=O)NCc1cccnc1)Cc1ccccc1 [Compound 4b, reference compound]

>  <kH2O2>
0.64 ± 0.07 10^3 × min^−1

$$$$

----------
- Study Target: CYP3A4 (Homo sapiens, UniProt P08684)
- Construct: The full-length protein was used for assays and the truncated form was used for crystallization; made in house
- Experiment: H2O2-dependent heme depletion (heme bleaching) assay
- Protocol Conditions: 10 mM H2O2, 2 h, relative to ligand-free CYP3A4 = 100%
Entries and their Heme Destroyed values follow.
Recorded Metric: Heme Destroyed

>  <Compound>
CC(C)(C)OC(=O)N[C@H](CS[C@@H](Cc1ccccc1)C(=O)NCCc1cccnc1)Cc1ccccc1 [Compound 4h, reference compound]

>  <Reported Value>
22 ± 3%

$$$$
>  <Compound>
O=C(CNC(=O)c1cccnc1)N[C@H](CS[C@H](Cc1ccccc1)C(=O)NCCCc1cccnc1)Cc1ccccc1 [Compound 10b]

>  <Reported Value>
19 ± 3%

$$$$
>  <Compound>
O=C(CCc1cccnc1)N[C@H](CS[C@@H](Cc1ccccc1)C(=O)NCCc1cccnc1)Cc1ccccc1

>  <Reported Value>
24 ± 2%

$$$$
>  <Compound>
CC(C)(C)OC(=O)N[C@H](CS[C@H](Cc1ccccc1)C(=O)NCc1cccnc1)Cc1ccccc1 [Compound 4b, reference compound]

>  <Reported Value>
39 ± 5%

$$$$
